target: Sialic acid-binding Ig-like lectin 9 (Homo sapiens); test: Hs-Siglec9 ALPHAscreen SOP 20170721; design: scale not given: direction of the effect not stated beside the values; settings: 10 µM
The entries below come with measured Percent Effect values attached.
attribute.measured: Percent Effect (%)

                                    compound  quantitative_readout
 0              CCN(CC)CCNC(=O)c1nn(CC)cc1Cl                 -7.51
 1  COC(=O)CCC(=O)N1CCC2(CN(Cc3cccc(F)c3)C2)C1                 0.909
 2  COc1c(CNC(c2ccc(F)cc2)C(C)(C)C)c(C)nn1C (centres undefined)                  2.41
 3        Cc1cnn(CCNCc2nc(-c3ccccc3Cl)no2)c1                 -5.56
 4            O=C(Cc1ccc2c(c1)OCCO2)NC1CCCC1                 -8.79
 5  Cc1noc([C@@]23CCO[C@@H]2CCN(C(=O)c2sccc2C)C3)n1                 -2.88
 6   Cc1nc(CN2C(=O)CCC23CCN(c2ncccn2)CC3)cs1                   4.1
 7  CC(=O)Nc1nc(C(=O)N2CCCC(n3nc(C)cc3C)C2)cs1 (centres undefined)                 -3.57
 8  COc1cccc(COCC(=O)N2CCCC(n3ccnc3)C2)c1 (centres undefined)                 -4.82
 9  CC(C)CCN1Cc2c(C(=O)O)ncn2-c2ccccc2S1(=O)=O                 -10.3
10  CN1CCc2cc(C(CNS(=O)(=O)c3cccs3)N3CCCC3)ccc21 (centres undefined)                 -7.92
11     CCOc1ccnc(N2CCN(C(=O)c3cccnc3O)CC2)n1                  2.97
12  CC(C)Oc1cc(N2C[C@@H](C)O[C@@H](C)C2)nc(N)n1                -0.905
13  CC(=O)N1CC[C@H]2OCC[C@@H](C(=O)N3CCCCO3)[C@@H]2C1                  10.7
14       CC(C)(C)c1ncc(C(=O)NCCS(N)(=O)=O)s1                  7.37
15  Cc1ccc(CNC2CCCc3c2cnn3C)s1 (centres undefined)                  1.58
16  CC(OCC1CC1)C(=O)N1CCCN(Cc2nccn2C)CC1 (centres undefined)                 -3.62
17  CN(C)C(=O)CN1CCC2(CCCN(Cc3cccn3C)C2)C1=O (centres undefined)                  -7.4
18  CS(=O)(=O)NC[C@]12COC[C@H]1CN(C(=O)c1ccccc1)C2                  9.67
19  CC(COc1ccc(F)cc1F)NC(=O)NCCN1CCOCC1 (centres undefined)                 -1.15
20   COc1cc(C(=O)N(CCC#N)Cc2ccccn2)cc(OC)c1C                  14.4
21  CC(=O)N1CCC2(CC1)CC(Oc1ccccc1)CO2 (centres undefined)                  9.38
22            CC(C)OCCN1CCC(N2CCN(C)C2=O)CC1                  4.31
23  O=C(NCc1ccco1)c1nn(C2CCS(=O)(=O)C2)c2c1CCCC2 (centres undefined)                  5.73
